Assay summary: in vitro
Reported conditions: human, CC50 (anti-PV-1 in HeLa cells column)
Reported property: CC50 (µM)
The answer is to be given in µM; state only the numeric part.

Item CC(C)n1ncc2c(C(=O)Nc3cccc(S(N)(=O)=O)c3)cc(-c3cccs3)nc21 : provide CC50
50

---

Test system: CV-B3 (CVB3-H3)
Format: cell-based, coxsackievirus B3
Reported conditions: SI50 = CC50/EC50
Reported property: SI50 (CV-B3 in HeLa cells)

// solved cases for SI50 (CV-B3 in HeLa cells) follow
1) CC(C)n1ncc2c(C(=O)Nc3ccncn3)cc(-c3cccs3)nc21 [JX043]
SI50: 33.3
2) CC(C)n1ncc2c(C(=O)Nc3cncnc3)cc(-c3cccs3)nc21 [JX066]
SI50: 25.7
3) CC(C)n1ncc2c(C(=O)Nc3cc(S(N)(=O)=O)ccc3F)cc(-c3cccs3)nc21 [JX068]
SI50: 25.7
4) CC(C)n1ncc2c(C(=O)Nc3ncccn3)cc(-c3cccs3)nc21 [JX041]
SI50: 62.5

Item CC(C)n1ncc2c(C(=O)Nc3cccc(F)c3F)cc(-c3cccs3)nc21 [JX019] : provide SI50 (CV-B3 in HeLa cells)
SI50: >74.1

Item CC(C)n1ncc2c(C(=O)Nc3cccc(C(N)=O)c3)cc(-c3cccs3)nc21 [JX064] : provide SI50 (CV-B3 in HeLa cells)
SI50: 25.7
